- system_under_test: ScCyk3
- measurement_protocol: SPOT peptide array binding signal intensity (averaged, normalized) (arbitrary units (background-subtracted, floor 0; scale differs between SH3 domains)); higher = stronger binding of the SH3 domain to the peptide
Hi all, reminder that labels come from SPOT peptide array binding signal intensity, split as range 1 (below 7), range 2 (7 to below 40), range 3 (40 or more)

>>> category_label("FSRRQSMDIPSKNRN")
"range 2"
>>> category_label("ISPPASPPPEFDFSK")
"range 1"
>>> category_label("IAPIPMPKPNPTHIS")
"range 1"
>>> category_label("DAPASKPSVPPRNYF")
"range 1"
>>> category_label("QDKEGIPPDQQRLIF")
"range 1"
>>> category_label("APERAVPILPPRNNV")
"range 1"
>>> category_label("TYNRTAFQIPGDQSI")
"range 1"
>>> category_label("YVRRRPRVRLEPLLS")
"range 3"
>>> category_label("PSRRAPLQLPQLVNK")
"range 1"
>>> category_label("DRIRMFIRFPKFLLE")
"range 3"
>>> category_label("FVLRYYILIPHEQWD")
"range 2"
>>> category_label("ILARAILTIPRVLDK")
"range 3"
>>> category_label("RSLRKRPTSPSISGS")
"range 3"
>>> category_label("VQQDSLPKLPFRSWG")
"range 1"
>>> category_label("SPLGAPPPPPHKDHL")
"range 1"
>>> category_label("SKIRPTPRKPSRMAT")
"range 2"
>>> category_label("NTMKKRPAPPSLPSL")
"range 2"
>>> category_label("APPLPPTAPPPPSLP")
"range 1"
>>> category_label("NSMRPPLLIPAATTK")
"range 1"
>>> category_label("RKNRAPPQRPRFNRE")
"range 3"
>>> category_label("KLSRGRYGLPLSSRP")
"range 3"
>>> category_label("VQPTAAPATPPRHIS")
"range 1"
>>> category_label("LLRRTIPKRPFYHVL")
"range 2"
>>> category_label("PAPPPPPRASRPTPN")
"range 1"
>>> category_label("VNIPSPSSSPPPIPK")
"range 1"
>>> category_label("TPRLSLPRLPNKHHW")
"range 1"
>>> category_label("APKHAPPPVPNETDN")
"range 1"
>>> category_label("VPKEPAPAPPPEPDM")
"range 1"
>>> category_label("YSRKKLPVVLSKMTL")
"range 2"
